The measured values listed here are drawn from patent US10370371B2.

QUANTITY: melting point

# MOLECULE, melting point
rows = [
    ("Cc1nc2ccccc2n1-c1cc(N)nc(Nc2ccc3c(c2)OCO3)n1", "118 to 119 °C"),
    ("CCc1nc2ccccc2n1-c1cc(N)nc(Nc2ccc(OC)c(F)c2)n1", "104 to 106 °C"),
    ("Nc1cc(-n2c(C3CC3)nc3cc(F)ccc32)nc(Nc2ccc(C(F)(F)F)cc2)n1", "237 to 238 °C"),
    ("COc1ccc(Nc2nc(N)cc(-n3c(C)nc4cc(C)c(C)cc43)n2)cc1F", "120 to 121 °C"),
]

Exam item: I'd like to know its melting point. The compound in question is `CCc1nc2ccccc2n1-c1cc(N)nc(Nc2ccc(Cl)cc2)n1`
Marked response: 172 to 173 °C

###

QUANTITY: melting point

Recorded melting point, per entry:
# MOLECULE, melting point
data = [
    ("COc1ccc(Nc2nc(N)cc(-n3c(C)nc4ccccc43)n2)cc1", "149 to 150 °C"),
    ("CCc1nc2ccc(F)cc2n1-c1cc(N)nc(Nc2ccc(C)cc2)n1", "187 to 189 °C"),
    ("CCc1nc2ccc(F)cc2n1-c1cc(N)nc(Nc2ccccc2)n1", "160 to 162 °C"),
]

Exam item: I'd like to know its melting point. The compound in question is `CCc1nn2ccc(F)cc2c1-c1cc(N)nc(Nc2ccc(C(F)(F)F)cc2)n1`
Marked response: 153 to 157 °C

Exam item: Same question, `CCc1nc2ccc(F)cc2n1-c1cc(N)nc(Nc2ccc(OC)c(F)c2)n1` this time
Marked response: 129 to 131 °C

Exam item: Same question, `Nc1cc(-n2c(C3CC3)nc3ccc(F)cc32)nc(Nc2ccc(OC(F)F)c(F)c2)n1` this time
Marked response: 185 to 186 °C

Exam item: Same question, `CCc1nc2ccc(F)cc2n1-c1cc(N)nc(Nc2ccc(C#N)cc2)n1` this time
Marked response: 252 to 255 °C

Exam item: Same question, `CC(C)c1nc2ccccc2n1-c1cc(N)nc(Nc2ccc(OC(F)F)cc2)n1` this time
Marked response: 184 to 187 °C

###

Entries and their melting point values follow.

Recorded melting point, per entry:
# MOLECULE, QUANTITY, VAL
records = [
    ("CC(C)c1nc2cc(F)ccc2n1-c1cc(N)nc(Nc2ccc(OC(F)F)cc2)n1", "melting point", "118 to 120 °C"),
    ("Cc1nc2ccc(F)cc2n1-c1cc(N)nc(Nc2ccc(OC(F)F)cc2)n1", "melting point", "141 to 143 °C"),
    ("Cc1nc2ccc(F)cc2n1-c1cc(N)nc(Nc2cccc(Cl)c2)n1", "melting point", "211 to 213 °C"),
]

Exam item: I'd like to know its melting point. The compound in question is `COc1ccc(Nc2nc(N)cc(-n3c(C)nc4ccccc43)n2)cc1F`
Marked response: 186 to 187 °C

Exam item: Same question, `COc1ccc(Nc2nc(N)cc(-n3c(C)nc4cc(C)c(C)cc43)n2)cc1` this time
Marked response: 113 to 114 °C

Exam item: Same question, `COCc1nc2ccccc2n1-c1cc(N)nc(Nc2ccc(C(F)(F)F)cc2)n1` this time
Marked response: 209 to 211 °C

Exam item: Same question, `COc1ccc(Nc2nc(N)cc(-n3c(C)nc4ccccc43)n2)cn1` this time
Marked response: 104 to 106 °C

Exam item: Same question, `COc1ccc(Nc2nc(N)cc(-c3c(C)noc3C)n2)cc1` this time
Marked response: 89 to 91 °C

Exam item: Same question, `CCc1nc2ccccc2n1-c1cc(N)nc(Nc2ccc(OC)c(Cl)c2)n1` this time
Marked response: 100 to 103 °C
